B1: Gamma-crystallin C, residues 4 to 79; numbered along this chain, P07315 (parent)
chain: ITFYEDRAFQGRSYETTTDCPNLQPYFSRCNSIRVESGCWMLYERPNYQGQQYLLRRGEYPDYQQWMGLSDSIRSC

variants of: B1; assay: abundance fitness (aPCA) (normalised: wild type 0, dead -1); higher = more abundant; growth selection in yeast, the domain comes from the species named; conditions: Homo sapiens
I'd appreciate it if you could supply abundance fitness values for the items below.
Please state the value as a number alone, without comment.

Report measured abundance fitness; entry is T17A
-0.014

Report measured abundance fitness; entry is Y48S
-0.324

Report measured abundance fitness; entry is R57Y
-0.269

Report measured abundance fitness; entry is Y53S
0.022

Report measured abundance fitness; entry is P21E
-0.074

Report measured abundance fitness; entry is M41Q
0.046

Report measured abundance fitness; entry is L69Y
-0.001

Report measured abundance fitness; entry is Y63S
-0.06

Report measured abundance fitness; entry is M41V
-0.115

Report measured abundance fitness; entry is N47K
0.025

Report measured abundance fitness; entry is T16N
-0.116

Report measured abundance fitness; entry is F9M
-0.095

Report measured abundance fitness; entry is S32I
-0.805

Report measured abundance fitness; entry is C30G
-0.582

Report measured abundance fitness; entry is L54Q
0.096

Report measured abundance fitness; entry is P21Q
0.016

Report measured abundance fitness; entry is M41K
-0.056

Report measured abundance fitness; entry is T18S
0.044

Report measured abundance fitness; entry is P21N
0.112

Report measured abundance fitness; entry is Q52A
-0.014

Report measured abundance fitness; entry is G11R
-0.155

Report measured abundance fitness; entry is S13Q
0.061

Report measured abundance fitness; entry is Q10P
-1.2

Report measured abundance fitness; entry is Q51P
-0.219

Report measured abundance fitness; entry is D71Q
-0.121

Report measured abundance fitness; entry is R12A
-0.058

Report measured abundance fitness; entry is Y48M
0.148

Report measured abundance fitness; entry is Q64Y
-0.182

Report measured abundance fitness; entry is W40M
-0.496

Report measured abundance fitness; entry is G11S
-0.142

Report measured abundance fitness; entry is C39I
-0.014

Report measured abundance fitness; entry is T16W
0.012

Report measured abundance fitness; entry is D6K
0.086

Report measured abundance fitness; entry is C76A
0.056

Report measured abundance fitness; entry is R74H
-0.001

Report measured abundance fitness; entry is C39T
-0.012

Report measured abundance fitness; entry is T16R
-0.078

Report measured abundance fitness; entry is Q24W
0.034

Report measured abundance fitness; entry is G58R
-0.16

Report measured abundance fitness; entry is C76F
-0.539

Report measured abundance fitness; entry is R7L
-0.029

Report measured abundance fitness; entry is R56D
-0.107

Report measured abundance fitness; entry is Y63T
-0.113

Report measured abundance fitness; entry is Y63A
-0.115

Report measured abundance fitness; entry is E36L
-0.078

Report measured abundance fitness; entry is T16V
0.031

Report measured abundance fitness; entry is A8I
0.001

Report measured abundance fitness; entry is Q49K
-0.056

Report measured abundance fitness; entry is M67E
-0.131

Report measured abundance fitness; entry is Y63M
-0.12

Report measured abundance fitness; entry is Q65E
0.052

Report measured abundance fitness; entry is Y48K
-0.813

Report measured abundance fitness; entry is S37V
0.066

Report measured abundance fitness; entry is E59F
-0.039

Report measured abundance fitness; entry is Q10A
0.065

Report measured abundance fitness; entry is E44A
-0.034

Report measured abundance fitness; entry is F9A
-0.139

Report measured abundance fitness; entry is G38T
-0.191

Report measured abundance fitness; entry is D62V
-0.015

Report measured abundance fitness; entry is I33R
-0.883

Report measured abundance fitness; entry is Q65C
0

Report measured abundance fitness; entry is R7Y
-0.266

Report measured abundance fitness; entry is E36Q
-0.081

Report measured abundance fitness; entry is C30L
-0.299

Report measured abundance fitness; entry is T18F
-0.014

Report measured abundance fitness; entry is G58T
-0.102

Report measured abundance fitness; entry is Q52W
-0.141

Report measured abundance fitness; entry is D71Y
-0.027

Report measured abundance fitness; entry is L42V
-0.011

Report measured abundance fitness; entry is R34E
-0.373

Report measured abundance fitness; entry is Y48F
-0.584
